Give measured protein stability index for each item. Keep answers brief.
B1: KRT33B (parent)
chain: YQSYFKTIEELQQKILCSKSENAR

Variants of: B1
Assay: protein stability index of a GFP-peptide fusion (GPS, HEK-293T) (PSI 1-6); higher = more stable;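 also: lentivirally expressed fusions sorted by FACS into six bins by GFP to DsRed ratio, PSI derived from sequencing read proportions per bin multiplied by bin number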
Conditions: c terminus: a fixed tail appended
One number for each entry.

Sample records with protein stability index:
[[record]]
change = "L11Q"
recorded_value = 1.71

[[record]]
change = "E9P"
recorded_value = 1.66

[[record]]
change = "L16D"
recorded_value = 1.87

[[record]]
change = "E21V"
recorded_value = 1.65

[[record]]
change = "S20L"
recorded_value = 1.73


State the recorded protein stability index for every item in the following list.
1. S18P
2. N22F
3. I8G
4. K14I
5. T7R
6. I8S

result:
1. 1.79
2. 1.67
3. 1.78
4. 1.66
5. 1.88
6. 1.51
